The reported numbers originate from patent US20170008955A1.

- study system: T1, cSNK:BSA conjugate (bovine, head-to-tail cyclized; conjugated to BSA carrier)
- T1 construct: also called BSA-cSNK
- T1 sequence (P02769 25-607 limits assumed): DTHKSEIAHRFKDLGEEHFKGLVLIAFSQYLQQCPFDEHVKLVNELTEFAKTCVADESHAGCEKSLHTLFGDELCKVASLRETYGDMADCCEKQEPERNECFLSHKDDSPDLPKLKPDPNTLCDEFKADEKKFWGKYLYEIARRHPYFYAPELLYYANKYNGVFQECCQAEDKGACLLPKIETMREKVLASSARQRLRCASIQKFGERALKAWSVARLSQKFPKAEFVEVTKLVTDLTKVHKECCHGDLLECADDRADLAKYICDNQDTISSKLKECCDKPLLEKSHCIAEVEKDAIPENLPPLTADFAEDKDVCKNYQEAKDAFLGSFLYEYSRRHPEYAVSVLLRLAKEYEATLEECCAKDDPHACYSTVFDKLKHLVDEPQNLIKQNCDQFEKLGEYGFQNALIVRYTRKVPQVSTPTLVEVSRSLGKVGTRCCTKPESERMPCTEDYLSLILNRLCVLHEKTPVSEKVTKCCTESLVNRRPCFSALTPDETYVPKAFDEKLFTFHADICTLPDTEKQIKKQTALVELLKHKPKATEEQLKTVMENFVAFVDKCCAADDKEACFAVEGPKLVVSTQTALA
- assay details: BLI 2:1 fit, site 1; 3.13 nM row
A collection of binders and their measured kon
Numbers only; they are read as M⁻¹ s⁻¹.

1. hu5E3-IgG2 (antibody, V domains shown, human IgG2/kappa; also called humanized 5E3 IgG2) VH: QVQLQQSGPEVKKPGASVKISCKASGYIFTSYYIQWVIHAPGQGLEWIGWIYPGNVNTKYNEKFKGKATLTADKSSSTAYMELSSLTSEDTAVYFCARMDYEAHYWGQGTTVTVSS VL: DIQMTQSPSSLSASVGDRVTITCRASQEISGYLTWLQQKPEGAIKRLIYAASTLDSGVPKRFSGSRSGSDYSLTISSLQPEDFATYNCLQYANYPRTFGGGTKLEIK :: 644000

Can you share its kon? I mean this binder: rehu5E3-IgG4 (antibody, V domains shown, human IgG4/kappa; also called IgG4 rehu version) VH: QVQLQQSGPEVVKPGASVKISCKASGYIFTSYYIQWVIHAPGQGLEWIGWIYPGNVNTKYNEKFKGKATLTADKSSSTAYMELSSLRSEDSAVYFCARMDYEAHYWGQGTLVTVSS VL: DIQMTQSPSSLSASLGDRVTLTCRASQEISGYLTWLQQKPEKAIKRLIYAASTLDSGVPKRFSGSRSGSDYTLTISSLQPEDFADYNCLQYANYPRTFGGGTKLEIK
692000

Can you share its kon? I mean this binder: hu5E3-IgG1 (antibody, V domains shown, human IgG1/kappa; also called humanized 5E3 IgG1; IHA variant) VH: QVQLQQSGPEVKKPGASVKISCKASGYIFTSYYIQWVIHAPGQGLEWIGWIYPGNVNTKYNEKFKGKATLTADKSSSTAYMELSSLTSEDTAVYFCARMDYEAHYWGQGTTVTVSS VL: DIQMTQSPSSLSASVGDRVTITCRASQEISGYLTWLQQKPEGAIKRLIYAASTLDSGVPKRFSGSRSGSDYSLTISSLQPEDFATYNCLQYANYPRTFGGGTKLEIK
1.78e+06

Can you share its kon? I mean this binder: murine monoclonal antibody 5E3 (antibody, V domains shown, mouse antibody of the 5E3 hybridoma; also called murine 5E3; m5E3) VH: QVQLQQSGPELVKPGASVRISCKASGYIFTSYYIQWVIHRPGQGLEWIGWIYPGNVNTKYNEKFKGKATLTADKSSSTAYMQLSRLTSEDSAVYFCARMDYEAHYWGQGTTLTVSS VL: DIQMTQSPSSLSASLGERVSLTCRASQEISGYLTWLQQKPDGTIKRLIYAASTLDSGVPKRFSGSRSGSDYSLTISSLESEDFADYNCLQYANYPRTFGGGTKLEIK
1.29e+06

Can you share its kon? I mean this binder: hu5E3-IgG4 (antibody, V domains shown, human IgG4/kappa; also called humanized 5E3 IgG4) VH: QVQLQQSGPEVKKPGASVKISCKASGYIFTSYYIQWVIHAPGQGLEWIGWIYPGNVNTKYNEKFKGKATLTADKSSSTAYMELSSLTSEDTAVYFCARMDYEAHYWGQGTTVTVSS VL: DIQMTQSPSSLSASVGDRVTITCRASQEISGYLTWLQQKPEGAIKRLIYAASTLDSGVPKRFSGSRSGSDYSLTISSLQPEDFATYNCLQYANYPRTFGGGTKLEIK
868000
